Target: LmbB2 (Streptomyces lincolnensis, UniProt Q54355)
Assay: Isothermal titration calorimetry
Assay type: binding
value.kind: log10(Kd) (log10 of the value in µM)

1. N[C@@H](Cc1ccc(O)c(Cl)c1)C(=O)O	2.54
2. N[C@@H](Cc1ccc(O)c(F)c1)C(=O)O	1.35
3. N[C@@H](Cc1ccc(O)cc1)C(=O)O	0.13
4. N[C@@H](Cc1ccccc1)C(=O)O	2.50
5. N[C@@H](Cc1ccc(O)c(I)c1)C(=O)O	3.89

----------
Biological target: LmbB2 (Streptomyces lincolnensis, UniProt Q54355)
Assay: Isothermal titration calorimetry
Format: binding
Conditions: ITC, 100 mM KPi, 50 mM NaCl, pH 8, 20 °C
pKd: −log10 of the molar value.
value.kind: pKd

1) COc1ccc(C[C@H](N)C(=O)O)cc1 [compound 3, O-methyl-L-tyrosine]	2.89
